Hello, the source for this data is patent US6133294A, in case you need it.

# pest or weed control at 100 ppm listing for each entry below
System: Leptosphaeria nodorum
methodDescription: Glume blotch of wheat (Leptosphaeria nodorum--LEPTNO)
Assay type: in vivo
appliedConditions: Parastagonospora nodorum; wheat (cultivar Monon), 100 ppm spray to run off, inoculated after 24 hours, 1DP; read-out: control of plant disease, LEPTNO 1DP
parameterMeasured: pest or weed control at 100 ppm

>>> result("CNC(=O)C(=NOC)c1ccccc1COc1ncc(-c2nc(-c3ccccc3)no2)cc1Cl")
"25 to 74%"
>>> result("CNC(=O)C(=NOC)c1ccccc1COc1cccc(-c2nc(C(C)(C)C)no2)n1")
"75 to 100%"
>>> result("CNC(=O)C(=NOC)c1ccccc1COc1ncc(-c2nc(CSC)no2)cc1Cl")
"75 to 100%"
>>> result("CCCc1noc(-c2ccc(OCc3ccccc3C(=NOC)C(=O)NC)nc2)n1")
"0 to 24%"
>>> result("CCc1cc(-c2cnc(OCc3ccccc3C(=NOC)C(=O)NC)c(Cl)c2)on1")
"75 to 100%"
>>> result("CNC(=O)C(=NOC)c1ccccc1COc1ncc(-c2noc(CSc3ccccc3)n2)cc1Cl")
"75 to 100%"
>>> result("CNC(=O)C(=NOC)c1ccccc1COc1ncc(-c2noc(C(C)C)n2)cc1Cl")
"75 to 100%"
>>> result("CCCCC(CC)c1nc(-c2cnc(OCc3ccccc3C(=NOC)C(=O)NC)c(Cl)c2)no1 (centres unmarked)")
"75 to 100%"
>>> result("CNC(=O)C(=NOC)c1ccccc1COc1ncc(-c2nc(C(C)C)no2)cc1Cl")
"75 to 100%"
>>> result("CCc1noc(-c2cccc(OCc3ccccc3C(=NOC)C(=O)NC)n2)n1")
"75 to 100%"
>>> result("CNC(=O)C(=NOC)c1ccccc1COc1ncc(-c2nnc(C(C)(C)C)o2)cc1Cl")
"75 to 100%"
